experiment: Verification pharmacokinetic experiment in rats, SPC 60 g crude drug/kg by gavage, UFLC-MS/MS, DAS 2.0; assay type: in vivo, rat; conditions: rat, plasma, po, 0.124 mg/kg, statistical moment parameters, DAS 2.0; rats p.o. SPC 60 g crude drug/kg; Mean, 5 rats; read-out: MRT(0-t)
measured_parameter: MRT last

{"smiles_code": "COc1cc(-c2coc3cc(O)ccc3c2=O)ccc1O", "measurement": "2.77 h"}

* * *

test: Verification pharmacokinetic experiment in rats, SPC 60 g crude drug/kg by gavage, UFLC-MS/MS, DAS 2.0; format: in vivo, rat; details: rat, plasma, po, 2.62 mg/kg, statistical moment parameters, DAS 2.0; rats p.o. SPC 60 g crude drug/kg; Mean, 5 rats; read-out: t1/2z (converted)

{"compound": "COc1cc([C@H]2c3cc(O)c(OC)cc3C[C@@H](CO)[C@@H]2CO)ccc1O [Constituent 4, isolariciresinol]", "half-life": "1.73 h"}

* * *

experiment: Verification pharmacokinetic experiment in rats, SPC 60 g crude drug/kg by gavage, UFLC-MS/MS, DAS 2.0; assay type: in vivo, rat; conditions: rat, plasma, po, 1.4 mg/kg, compartment model parameters, DAS 2.0; rats p.o. SPC 60 g crude drug/kg; Mean, 5 rats; read-out: AUC(0-∞)
measured_parameter: AUC(0-inf) (ng·h/mL)

{"smiles_code": "O=c1c(-c2ccc(O)cc2)coc2cc(O[C@@H]3O[C@H](CO)[C@@H](O)[C@H](O)[C@H]3O)ccc12", "measured_parameter": "AUC(0-inf)", "measurement": 39.5}

* * *

test: Verification pharmacokinetic experiment in rats, SPC 60 g crude drug/kg by gavage, UFLC-MS/MS, DAS 2.0; format: in vivo, rat; details: compartment model parameters, DAS 2.0; rats p.o. SPC 60 g crude drug/kg; Mean, 5 rats
measured_parameter: K12 (h⁻¹)

{"compound": "COc1cc(-c2coc3cc(O)ccc3c2=O)ccc1O [Constituent 1, 3′-methoxydadizein]", "unit_label": "h⁻¹", "measurement": 0.207}
{"compound": "COc1ccc(-c2coc3c(OC)c(O)ccc3c2=O)cc1 [Constituent 2, 8-O-methylretusin]", "unit_label": "h⁻¹", "measurement": 0.394}
{"compound": "COc1cc([C@H]2c3cc(O)c(OC)cc3C[C@@H](CO)[C@@H]2CO)ccc1O [Constituent 4, isolariciresinol]", "unit_label": "h⁻¹", "measurement": 0.448}
{"compound": "O=c1c(-c2ccc(O)cc2)coc2cc(O[C@@H]3O[C@H](CO)[C@@H](O)[C@H](O)[C@H]3O)ccc12 [Constituent 3, daidzin]", "unit_label": "h⁻¹", "measurement": 0.402}

* * *

Experiment: Verification pharmacokinetic experiment in rats, SPC 60 g crude drug/kg by gavage, UFLC-MS/MS, DAS 2.0
Assay type: in vivo, rat
Conditions: rat, plasma, po, 1.4 mg/kg, compartment model parameters, DAS 2.0; rats p.o. SPC 60 g crude drug/kg; Mean, 5 rats; read-out: AUC(0-t)
Description: To validate the accuracy of PBPK models in predicting the pharmacokinetics of SPC constituents at different oral doses, the pharmacokinetic behavior of these four constituents from SPC in rats were analyzed by UFLC-MS/MS. The parameters were calculated using Drug and Statistics Software version 2.0, and then these validated values (Val.) were used to check the accuracy of the Calc. values and evaluated by FE. […]
measured_parameter: AUC(0-t) (ng·h/mL)

{"smiles_code": "O=c1c(-c2ccc(O)cc2)coc2cc(O[C@@H]3O[C@H](CO)[C@@H](O)[C@H](O)[C@H]3O)ccc12", "measurement": 37.1}
